- test_description: folding stability dG unfold (combined trypsin and chymotrypsin); higher = more stable

seq | u | censoring_sign | folding stability dG unfold
SAGGSAGGSAGMSVSLTSTTVSLPPELLSPEEAARTEDAVVTTTTSTLPAVVDPATGTVTSAGGSAGGSAGG [r17_310_JUSTAS] | kcal/mol | = | 1.39
SAGSMKTVVRVEKEVDPSTGKITITEEIEDKVYTTTMDLNPETGDATSTVTYPDSTIGTTTVPISSISSSAG [r5_415_JUSTAS] | kcal/mol | = | 0.432
SAGGSAGGSAGPPGEPKPKPERKTVHINIPYPPGHPEMREKARELANELQDEGAKVEIYWSAGGSAGGSAGG [r11_519_TrROS] | kcal/mol | < | -1
SGGMTPEQMIRHVLREARANNPGKKIEISWNSIQKNFPHPMSPEEIKKELKEEDGIKDVTIQPIPPNDPFSA [r9_738_TrROS] | kcal/mol | < | -1
